- Test system: IGROV1 ovarian
- assay.info: NCI tumour cell line growth inhibition, 48 h
Give measured TGI for each item. Keep answers brief.

Recorded TGI, per entry:
O=C(N/N=C/c1ccc(F)cc1)c1[nH]c2ccc(I)cc2c1-c1ccccc1 = 32.5 µM
COc1cc2[nH]c(-c3ccccc3)cc(=O)c2cc1OC = > 100 µM
COc1ccc(N=Cc2ccc(N(CCC#N)CCC#N)cc2)cc1 = > 100 µM

Record TGI per entry; entries follow.
1. COc1ccc(/C=[N+](\[O-])[C@H](COCc2ccccc2)c2ccccc2)cc1
2. NC(N)=N/N=C/c1c(-c2cc(Cl)sc2Cl)nc2n1CCS2

1. > 100 µM
2. > 50 µM

Record TGI per entry; entries follow.
1. CC(=O)Oc1ccc2c(c1)CC[C@@H]1C2[C@@H](O[N+](=O)[O-])C[C@@]2(C)C1CC[C@@H]2O (stereo partly specified)
2. COc1ccc(CN=CN/C(C#N)=C(\N)C#N)cc1OC
3. Fc1cccc2nc(-c3ccccc3)cc(OCc3ccccc3)c12
4. Cn1c(N/N=C/c2ccc(Cl)cc2)nc(-c2ccc(Cl)cc2)c(C#N)c1=O
5. CCN(CC)C(=O)CCCCCCCCC1CO1 (stereo unspecified)
6. NC(N)=NNC(=O)C(=O)O

> 100 µM
> 100 µM
> 100 µM
25.6 µM
> 100 µM
> 100 µM
